# ASSAY_EXPLANATION: soluble on expression in E. coli; label from the status in PepcDB or PDB records

# CHAIN_SEQUENCE, soluble on expression in E. coli
rows = [
    ("MAHHHHHHSLTTDLPAAYHIEQRAHAFPWSEKTFASNQGERYLNFQLTQNGKMAAFAITQVVLDEATLFNIAVDPDYQRQGLGRALLEHLIDELEKRGVATLWLEVRASNAAAIALYESLGFNEATIRRNYYPTTDGREDAIIMALPISMEG", "not soluble"),
    ("MGSDKIHHHHHHMPQGKANPFNINTSVKNGTVAKVGSISPTSFLNSVDPNATEVDVGGEPFNQKEFLELALNDDFLKGLLLDEEGNIKPEVAGEATIQGLEQWHQNDAGLEVDDTDTLGLMFNYYLNDNVSLQFIGGIPPKVDIKGQGEILAPLSGVALSPNELVKILFPNGITLGQAVPITNLGNKPKAASVRAWTPAIEAQYQFGKSGVNKFRPYLGVGLMYAHFNDIKLNDEIRSDLISAGHMIQNVLDGKAGAALDRKESSGNMVVKVDADDAIAPIFTAGFTYDFNDSWYTVASVSYAKLNNRTQIDVINQNTGARLIHGSTKVDIDPIITYLGVGYRF", "not soluble"),
]
